# TARGET_UNDER_TEST: UniProt P09467
# Sequence (P09467 whole entry): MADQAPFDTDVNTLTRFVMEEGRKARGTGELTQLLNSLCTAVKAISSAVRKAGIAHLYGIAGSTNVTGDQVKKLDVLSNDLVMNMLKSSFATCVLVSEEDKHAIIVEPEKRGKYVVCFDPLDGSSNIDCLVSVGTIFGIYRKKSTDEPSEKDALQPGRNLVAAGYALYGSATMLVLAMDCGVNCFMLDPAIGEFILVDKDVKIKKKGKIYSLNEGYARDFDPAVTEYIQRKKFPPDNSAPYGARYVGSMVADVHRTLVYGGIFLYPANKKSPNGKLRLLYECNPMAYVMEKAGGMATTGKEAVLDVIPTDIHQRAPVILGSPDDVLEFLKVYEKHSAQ
// merged dataset of log10 IC50 values, system = UniProt P09467, multiple refs
PARAMETER_MEASURED: log10 IC50 (log10 of the value in µM)

{"SMILES_REPRESENTATION": "Nc1ncnc2c1nc(C(=O)NCP(=O)(O)O)n2CCc1ccccc1", "log10 IC50": 2.00}
{"SMILES_REPRESENTATION": "CCCc1sc(N)nc1-c1cccc(P(=O)(O)O)c1", "log10 IC50": -0.60}
{"SMILES_REPRESENTATION": "Nc1nc2c(s1)CCc1ccc(CP(=O)(O)O)cc1-2", "log10 IC50": -0.08}
{"SMILES_REPRESENTATION": "O=S(=O)(Nc1nc2cc(Cl)ccc2o1)c1cc(Cl)ccc1Cl", "log10 IC50": 0.53}
{"SMILES_REPRESENTATION": "CC(C)Cc1ocnc1-c1ccc(P(=O)(O)O)o1", "log10 IC50": 0.28}
